Data origin, for the record: ChEMBL document CHEMBL1144458

# collection of IC50 values tested on RNA-directed RNA polymerase (Hepacivirus hominis)
Numeric answer only, unit µM assumed.

Task item: Record request: IC50 value, item O=C(O)c1cnc(N(C(=O)c2ccc(Oc3cccc(OC(F)(F)F)c3)cc2)C2CCCCC2)s1
Reply: 5.2

Task item: Would you kindly repeat that for COc1ccc(Oc2ccc(C(=O)N(c3ncc(C(=O)O)s3)C3CCCCC3)cc2)cc1OC ?
Reply: 3.5

###

# STUDY_TARGET: Cytochrome P450 2D6 (Homo sapiens)
# Sequence (P10635 whole entry): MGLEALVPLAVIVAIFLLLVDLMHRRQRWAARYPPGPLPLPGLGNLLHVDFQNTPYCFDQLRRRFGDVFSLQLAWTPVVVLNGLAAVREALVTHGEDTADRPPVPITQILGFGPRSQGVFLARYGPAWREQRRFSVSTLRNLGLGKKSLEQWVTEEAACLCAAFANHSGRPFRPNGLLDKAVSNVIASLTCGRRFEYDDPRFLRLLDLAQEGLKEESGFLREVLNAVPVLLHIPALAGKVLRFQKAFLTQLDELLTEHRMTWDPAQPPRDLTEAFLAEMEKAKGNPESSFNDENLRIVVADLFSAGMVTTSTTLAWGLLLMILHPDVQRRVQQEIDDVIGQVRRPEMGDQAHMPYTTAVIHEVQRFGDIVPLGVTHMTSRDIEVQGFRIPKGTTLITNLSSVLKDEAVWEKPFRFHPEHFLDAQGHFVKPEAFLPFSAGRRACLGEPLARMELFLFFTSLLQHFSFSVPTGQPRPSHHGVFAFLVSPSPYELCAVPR
pIC50: −log10 of the molar value.
PROPERTY_LABEL: pIC50

Task item: // query pIC50 value for entry O=C(O)c1cnc(N(C(=O)c2ccc(OCc3cccc(C(F)(F)F)c3)cc2)C2CCCCC2)s1
Reply: < 4.52

###

Reported IC50 values, RNA-directed RNA polymerase (Hepacivirus hominis).
Please give a number only; it is taken to be in µM.

Task item: GET /values?readout=IC50&item= O=C(O)c1cnc(N(C(=O)c2ccc(OCc3ccccc3F)cc2)C2CCCCC2)s1
Reply: 4

Task item: Same question for O=C(O)c1cnc(N(C(=O)c2ccc(Oc3ccccc3)cc2)C2CCSCC2)s1 please.
Reply: 13

Task item: Would you kindly repeat that for O=C(O)c1cnc(N(C(=O)c2ccc(OC3CCCCC3)cc2)C2CCCCC2)s1 ?
Reply: 5.5

Task item: Next compound: O=C(O)c1cnc(N(C(=O)c2ccc(Oc3cccc(Cl)c3)cc2)C2CCCCC2)s1
Reply: 2.8

Task item: Can you check O=C(O)c1cnc(N(C(=O)c2ccc(OCc3cccc(C(F)(F)F)c3)cc2)C2CCCCC2)s1 next?
Reply: 1.4

Task item: Param item: C[C@@H]1CCCC[C@H]1N(C(=O)c1ccc(Oc2ccccc2)cc1)c1nc(C(=O)O)cs1 (stereo in doubt; cis)
Reply: 7.6

Task item: Moving on to C[C@H]1CC[C@@H](N(C(=O)c2ccc(Oc3ccccc3)cc2)c2nc(C(=O)O)cs2)CC1 (stereo in doubt; cis)
Reply: 5.7

Task item: Continue with C[C@@H]1CCCC[C@H]1N(C(=O)c1ccc(Oc2ccccc2)cc1)c1nc(C(=O)O)cs1 (stereo in doubt; trans)
Reply: 11

Task item: Try the compound O=C(O)c1cnc(N(C(=O)c2ccc(OCc3cccs3)cc2)C2CCCCC2)s1
Reply: 7

Task item: Now consider O=C(O)c1cnc(N(C(=O)c2ccc(OCc3ccc(F)cc3)cc2)C2CCCCC2)s1 and answer again.
Reply: 3.9

Task item: Try COc1ccccc1COc1ccc(C(=O)N(c2ncc(C(=O)O)s2)C2CCCCC2)cc1 next.
Reply: 8.5

Task item: Could you do the same for COc1ccccc1Oc1ccc(C(=O)N(c2ncc(C(=O)O)s2)C2CCCCC2)cc1 , please?
Reply: 8.5

Task item: Item: CC(C)(C)[C@H]1CC[C@H](N(C(=O)c2ccc(Oc3ccccc3)cc2)c2ncc(C(=O)O)s2)CC1 (stereo in doubt; trans)
Reply: 6

Task item: Then what about the compound O=C(O)c1cnc(N(C(=O)c2ccc(Oc3cccc(C(F)(F)F)c3)cc2)C2CCCCC2)s1 ?
Reply: 4.4

Task item: Do the same for O=C(O)c1cnc(N(C(=O)c2ccc(Oc3ccc(Cl)c(Cl)c3)cc2)C2CCCCC2)s1 please
Reply: 2.6

Task item: Same thing, different compound: C[C@H]1CC[C@H](N(C(=O)c2ccc(Oc3ccccc3)cc2)c2ncc(C(=O)O)s2)CC1 (stereo in doubt; trans)
Reply: 5

###

# RUN_DESCRIPTION: Permeability determined in Caco-2 experiment
# Type: ADME
# CONDITION_SET: human, read-out: Permeability
PROPERTY_LABEL: Papp (×10⁻⁶ cm/s)
Field: numeric (×10⁻⁶ cm/s). Do not append units.

Task item: I am curious: what Papp value has been reported for O=C(O)c1cnc(N(C(=O)c2ccc(OCc3cccc(C(F)(F)F)c3)cc2)C2CCCCC2)s1 ?
Reply: 14.7

###

Please provide measured pIC50 for the entries that follow.
# STUDY_TARGET: RNA-directed RNA polymerase (Hepacivirus hominis, UniProt O39930)
# Sequence (O39930 whole entry): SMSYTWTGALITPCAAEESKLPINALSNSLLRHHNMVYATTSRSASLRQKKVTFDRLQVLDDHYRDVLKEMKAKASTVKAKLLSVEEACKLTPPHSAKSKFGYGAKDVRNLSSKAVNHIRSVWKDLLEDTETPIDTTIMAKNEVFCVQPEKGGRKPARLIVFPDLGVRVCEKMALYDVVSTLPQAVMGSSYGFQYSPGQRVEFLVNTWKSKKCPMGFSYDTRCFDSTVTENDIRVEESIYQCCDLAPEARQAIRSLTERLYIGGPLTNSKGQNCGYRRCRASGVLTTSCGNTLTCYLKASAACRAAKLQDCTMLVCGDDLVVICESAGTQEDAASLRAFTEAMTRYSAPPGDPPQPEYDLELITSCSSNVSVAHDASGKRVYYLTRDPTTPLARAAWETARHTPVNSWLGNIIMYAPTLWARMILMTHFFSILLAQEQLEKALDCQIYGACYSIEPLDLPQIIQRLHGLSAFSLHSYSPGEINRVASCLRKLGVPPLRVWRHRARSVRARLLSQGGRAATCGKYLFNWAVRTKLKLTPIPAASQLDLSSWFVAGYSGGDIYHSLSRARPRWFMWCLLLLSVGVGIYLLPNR
pIC50: −log10 of the molar value.

Task item: // returns reported pIC50 for input O=C(Nc1ncc(C(=O)O)s1)c1ccc(Oc2ccccc2)cc1
Reply: < 4.30

Task item: CC(C)N(C(=O)c1ccc(Oc2ccccc2)cc1)c1nc(C(=O)O)cs1 ?
Reply: < 4.30

Task item: Input O=C(O)c1cnc(N(C(=O)c2ccc(Oc3ccccc3)cc2)C2CCS(=O)(=O)CC2)s1
Reply: < 4.30
